Tested on: Liver
Assay: Drug uptake in rat liver extra-mitochondria at 1 uM in presence of succinate/valinomycin by TPP+-based electrode assay
Format: ADME, tissue-based
Answer false if Drug uptake is under 2 µM, and true if it is 2 µM or more.

Sample answers from the record:
CS(=O)(=O)[O-].O=C(/C=C/c1cc(O)c(O)c(O)c1)NCCCCCCCCCC[P+](c1ccccc1)(c1ccccc1)c1ccccc1 | false
CS(=O)(=O)[O-].O=C(/C=C/c1cc(O)c(O)c(O)c1)NCCCCCCCC[P+](c1ccccc1)(c1ccccc1)c1ccccc1 | false
CS(=O)(=O)[O-].O=C(/C=C/c1ccc(O)c(O)c1)NCCCCCC[P+](c1ccccc1)(c1ccccc1)c1ccccc1 | false
CS(=O)(=O)[O-].O=C(/C=C/c1ccc(O)c(O)c1)NCC[P+](c1ccccc1)(c1ccccc1)c1ccccc1 | true
CS(=O)(=O)[O-].O=C(/C=C/c1ccc(O)c(O)c1)NCCCCCCCCCC[P+](c1ccccc1)(c1ccccc1)c1ccccc1 | false
CS(=O)(=O)[O-].O=C(/C=C/c1cc(O)c(O)c(O)c1)NCCCCCC[P+](c1ccccc1)(c1ccccc1)c1ccccc1 | true

Moving on to another compound below.
[in] Drug uptake >= 2 µM for CS(=O)(=O)[O-].O=C(/C=C/c1ccc(O)c(O)c1)NCCCCCCCC[P+](c1ccccc1)(c1ccccc1)c1ccccc1 ?
[out] false

====

Test system: Liver
Assay: Drug uptake in rat liver intra-mitochondria at 1 uM in presence of succinate/valinomycin by TPP+-based electrode assay
Type: ADME, tissue-based
attribute measured: Drug uptake

Example molecules with recorded Drug uptake:
CS(=O)(=O)[O-].O=C(/C=C/c1cc(O)c(O)c(O)c1)NCCCCCCCC[P+](c1ccccc1)(c1ccccc1)c1ccccc1 | 4.5 mM
CS(=O)(=O)[O-].O=C(/C=C/c1ccc(O)c(O)c1)NCCCCCC[P+](c1ccccc1)(c1ccccc1)c1ccccc1 | 2.5 mM
CS(=O)(=O)[O-].O=C(/C=C/c1ccc(O)c(O)c1)NCCCCCCCC[P+](c1ccccc1)(c1ccccc1)c1ccccc1 | 5.7 mM
CS(=O)(=O)[O-].O=C(/C=C/c1cc(O)c(O)c(O)c1)NCCCCCCCCCC[P+](c1ccccc1)(c1ccccc1)c1ccccc1 | 5 mM
CS(=O)(=O)[O-].O=C(/C=C/c1cc(O)c(O)c(O)c1)NCCCCCC[P+](c1ccccc1)(c1ccccc1)c1ccccc1 | 2 mM
CS(=O)(=O)[O-].O=C(/C=C/c1ccc(O)c(O)c1)NCC[P+](c1ccccc1)(c1ccccc1)c1ccccc1 | 1.5 mM

Next item in the queue.
[in] Requested read-out: Drug uptake. Entry: CS(=O)(=O)[O-].O=C(/C=C/c1ccc(O)c(O)c1)NCCCCCCCCCC[P+](c1ccccc1)(c1ccccc1)c1ccccc1
[out] 4.7 mM

====

pIC50 values, listed per item
Experiment: Antioxidant activity assessed as ABTS radical scavenging activity measured each minute for 15 mins by spectrophotometric analysis
Assay type: functional
Lab note: report pIC50 as minus log10 of the concentration in molar units, number only.

Example molecules with recorded pIC50:
CS(=O)(=O)[O-].O=C(/C=C/c1cc(O)c(O)c(O)c1)NCCCCCC[P+](c1ccccc1)(c1ccccc1)c1ccccc1 | 4.91
CS(=O)(=O)[O-].O=C(/C=C/c1ccc(O)c(O)c1)NCCCCCCCC[P+](c1ccccc1)(c1ccccc1)c1ccccc1 | 4.55
CS(=O)(=O)[O-].O=C(/C=C/c1ccc(O)c(O)c1)NCC[P+](c1ccccc1)(c1ccccc1)c1ccccc1 | 4.48
CS(=O)(=O)[O-].O=C(/C=C/c1cc(O)c(O)c(O)c1)NCCCCCCCC[P+](c1ccccc1)(c1ccccc1)c1ccccc1 | 5.06
CS(=O)(=O)[O-].O=C(/C=C/c1ccc(O)c(O)c1)NCCCCCC[P+](c1ccccc1)(c1ccccc1)c1ccccc1 | 4.52

[in] Requested read-out: pIC50. Entry: O=C(O)/C=C/c1ccc(O)c(O)c1
[out] 4.75

[in] Requested read-out: pIC50. Entry: CS(=O)(=O)[O-].O=C(/C=C/c1ccc(O)c(O)c1)NCCCCCCCCCC[P+](c1ccccc1)(c1ccccc1)c1ccccc1
[out] 4.63

[in] Requested read-out: pIC50. Entry: CS(=O)(=O)[O-].O=C(/C=C/c1cc(O)c(O)c(O)c1)NCCCCCCCCCC[P+](c1ccccc1)(c1ccccc1)c1ccccc1
[out] 5.12
